target: Rap guanine nucleotide exchange factor 4 (Homo sapiens); assay: Confirmatory qHTS for agonist of cAMP-regulated guanine nucleotide exchange factor 4 (EPAC2) (AID 1645884); details: EPAC2 GEF activity, Rap1B-BODIPY-GDP fluorescence; series mostly up to 154 µM;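 also: nucleotide exchange releases bodipy-GDP from Rap1 and this lowers its fluorescence; potency is read from the fitted curve at half-maximal effect; nearly all actives have a fitted effect of over 65% in size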
Records with an inconclusive call do not appear. Active and inactive are the calls of the source. Calls follow the shape of the dose curve; as a rule, active = well fitted activation curve with a large enough effect; inconclusive = small, poorly fitted or top-dose-only effect; inactive = no such curve, though single readings can be large or run the other way.
QUANTITY NAME: Potency

Reference set, count: 5
{"columns": ["SMI", "RESULT"],
 "data": [
  ["Cc1nn(C)c(C)c1N1C(=O)c2cccc3c(N)ccc(c23)C1=O", "5.01 µM (active)"],
  ["CCOc1cc(/C=C2\\CCCc3c2nc2ccccc2c3C(=O)O)ccc1OC", "112 µM (active)"],
  ["O=C(Cc1ccccc1)Nn1c(O)c(/C=C2\\C=Nc3ccccc32)sc1=S", "100 µM (active)"],
  ["Nc1ccc2nc3c(=O)[nH]c(=S)[nH]c3nc2c1", "100 µM (active)"],
  ["Cn1nc(-c2ccccc2)c2nc3ccccc3nc21", "100 µM (active)"]
]}

Query :: Identify the reported Potency for the following entry. `O=c1oc2cc(O)ccc2cc1-c1nnc(Nc2ccccc2F)s1`
Result :: 14.1 µM (active)

Query :: Identify measured Potency corresponding to `CCn1c(O)c(/C=N/N=C/c2ccc(OC)cc2)c2cc(C3=NNC(=O)CC3)ccc21`
Result :: 100 µM (active)

Query :: Please report the measured Potency for `CC(C)n1cc(/C=C/c2cc[n+](C)cc2)c2ccccc21`
Result :: 112 µM (active)

---

target: Glutathione peroxidase 1 (Homo sapiens); assay: Primary qHTS Assay for Inhibitors of Recombinant Selenoprotein Glutathione Peroxidase 1 (GPX1) (AID 1845191); settings: recombinant GPX1, GR-coupled NADPH fluorescence, 15 min; series mostly up to 48.8 µM; also: nearly all actives have a fitted effect of over 65% in size
Records with an inconclusive call do not appear. Active and inactive are the calls of the source. The call rests on the fitted dose curve; in most records, active means well fitted inhibition curve with a large enough effect; inconclusive means small, poorly fitted or top-dose-only effect; inactive means flat fitted curve, though single readings scatter.
Please answer using one outcome listed in class 1 for active, class 0 for inactive

{"columns": ["COMPOUND", "TEST TARGET", "CLASS ASSIGNMENT"],
 "data": [
  ["CC(=O)c1cc2cccc(OCC(O)CNC(C)C)c2o1 (stereo unspecified)", "Glutathione peroxidase 1 (Homo sapiens)", "class 0"],
  ["CO/N=C(/C(=O)N[C@@H]1C(=O)N2C(C(=O)OC(C)OC(C)=O)=C(COC(N)=O)CS[C@H]12)c1ccco1 (stereo partly specified)", "Glutathione peroxidase 1 (Homo sapiens)", "class 1"],
  ["O=C(O)CCN(O)C(=O)CCCCCCCCC1CC1", "Glutathione peroxidase 1 (Homo sapiens)", "class 0"],
  ["C[Si](C)(C)O[Si](C)(C)O[Si](C)(C)C", "Glutathione peroxidase 1 (Homo sapiens)", "class 0"],
  ["Cn1c(/C=C/C(=O)NO)ccc1/C=C/C(=O)c1cccc(F)c1", "Glutathione peroxidase 1 (Homo sapiens)", "class 0"]
]}

Query :: For `COc1cc(N)cn[n+]1-c1ccccc1` , which call appears in the assay record?
Result :: class 0

Query :: Give the logged outcome of this assay for the following compound: `O=C(O)CCCN1CCC(O[C@@H](c2ccc(Cl)cc2)c2ccccn2)CC1`
Result :: class 0

Query :: What did the test return for `CCC(=O)O[C@]1(C(=O)COC(C)=O)CC[C@H]2[C@@H]3C[C@H](C)C4=CC(=O)C=C[C@]4(C)[C@H]3[C@@H](O)C[C@@]21C` ?
Result :: class 0

Query :: Write down the call the test reported for this compound. Item: C=C1/C(=C\C=C2/CCC[C@@]3(C)C2CC[C@@H]3[C@H](C)/C=C\[C@@H](O)C2CC2)C[C@@H](O)C[C@@H]1O (stereo partly specified)
Result :: class 0

Query :: Hi team, can someone confirm the assay call for `Cc1ccc(S(=O)(=O)O)cc1` ?
Result :: class 0

Query :: Which outcome was assigned to `CC(C)CCC[C@@H](C)[C@H]1CC[C@H]2[C@@H]3CC[C@H]4C[C@@H](O)CC[C@]4(C)[C@@H]3CC[C@]12C` in this test?
Result :: class 0

Query :: What did this assay record as the result for `C/C(=N\N=C(N)N)c1ccc(NC(=O)Nc2ccc(/C(C)=N/N=C(N)N)cc2)cc1` ?
Result :: class 0

Query :: Name the outcome recorded for `CN[C@@H]1[C@H](O[C@H]2[C@H](O[C@@H]3[C@@H](O)[C@H](O)[C@@H](N=C(N)N)[C@H](O)[C@H]3NC(=N)N)O[C@@H](C)[C@]2(O)CO)O[C@@H](CO)[C@H](O)[C@H]1O` in the assay.
Result :: class 0

Query :: // return assay outcome for `CC(C)c1nc(CN(C)C(=O)N[C@@H](CCN2CCOCC2)C(=O)N[C@H](CC[C@H](Cc2ccccc2)NC(=O)OCc2cncs2)Cc2ccccc2)cs1`
Result :: class 0

Query :: Recorded test outcome, item CC1CCc2c(sc3nc(-c4cc5ccccc5oc4=O)nc(Cl)c23)C1 (stereo unspecified)
Result :: class 0

Query :: Can you look up the reported call for `O=C(O)c1ccccc1C(c1ccc(O)cc1)c1ccc(O)cc1` for me?
Result :: class 0
